test system: Trichoderma virens ATCC 9645; assay: growth yield (OD600) with compound + IPBC relative to untreated control; higher = less growth inhibition; details: compound concentration: 100 uM; IPBC concentration: 200 ng/ml; 40 h
The campaign covered roughly 1,300 compounds. About 130 (10%) showed an effect of 50% or more. The sample as a whole holds a higher share of strong results than the screen did.
Catalogue of molecules with associated growth yield

- molecule: "Nc1nc(F)nc2c1ncn2[C@@H]1O[C@H](CO)[C@@H](O)[C@@H]1O [Fludarabine] + CCCCNC(=O)OCC#CI [3-iodo-2-propynyl butylcarbamate (IPBC)]"
  uom: "%"
  growth yield: 85.3
- molecule: "Cc1cccc(C)c1NC1=NCCCS1 [Xylazine] + CCCCNC(=O)OCC#CI [3-iodo-2-propynyl butylcarbamate (IPBC)]"
  uom: "%"
  growth yield: 84.3
- molecule: "O=C1O[C@H]([C@@H](O)CO)C(O)=C1O [Ascorbic acid] + CCCCNC(=O)OCC#CI [3-iodo-2-propynyl butylcarbamate (IPBC)]"
  uom: "%"
  growth yield: 92.1
- molecule: "COc1ccccc1OCC(O)CN1CCN(CC(=O)Nc2c(C)cccc2C)CC1 (stereo not given) [Ranolazine] + CCCCNC(=O)OCC#CI [3-iodo-2-propynyl butylcarbamate (IPBC)]"
  uom: "%"
  growth yield: 89.7
- molecule: "CO[C@H]1/C=C/O[C@@]2(C)Oc3c(C)c(O)c4c(O)c(c(/C=N/N5CCN(C)CC5)c(O)c4c3C2=O)NC(=O)/C(C)=C\\C=C\\[C@H](C)[C@H](O)[C@@H](C)[C@@H](O)[C@@H](C)[C@H](OC(C)=O)[C@@H]1C [Rifampicin] + CCCCNC(=O)OCC#CI [3-iodo-2-propynyl butylcarbamate (IPBC)]"
  uom: "%"
  growth yield: 89

* * *

Catalogue of compounds with associated growth yield
tested on: Trichoderma virens ATCC 9645; assay: growth yield (OD600) with compound + IPBC relative to untreated control; higher = less growth inhibition; conditions: compound concentration: 100 uM; IPBC concentration: 200 ng/ml; 72 h
Hit rate of the full screen: of about 1,300 compounds, about 130 (10%) showed an effect of 50% or more. Shown is part of a subset that was picked to be rich in strong results.
experimental_endpoint: growth yield (%)

- compound: "CC(C(=O)O)c1ccc(C(=O)c2cccs2)cc1 (stereo not drawn) [Suprofen] + CCCCNC(=O)OCC#CI [3-iodo-2-propynyl butylcarbamate (IPBC)]"
  experimental_endpoint: "growth yield"
  value_measured: 89.1
- compound: "CC1(C)O[C@@H]2C[C@H]3[C@@H]4CCC5=CC(=O)C=C[C@]5(C)[C@H]4[C@@H](O)C[C@]3(C)[C@]2(C(=O)CO)O1 [Desonide] + CCCCNC(=O)OCC#CI [3-iodo-2-propynyl butylcarbamate (IPBC)]"
  experimental_endpoint: "growth yield"
  value_measured: 103
- compound: "C[C@H](O)C(=O)Nc1c(I)c(C(=O)NC(CO)CO)c(I)c(C(=O)NC(CO)CO)c1I [Iopamidol] + CCCCNC(=O)OCC#CI [3-iodo-2-propynyl butylcarbamate (IPBC)]"
  experimental_endpoint: "growth yield"
  value_measured: 101

* * *

system: Trichoderma virens ATCC 9645; experiment: growth yield (OD600) with compound + IPBC relative to untreated control; higher = less growth inhibition; details: compound concentration: 100 uM; IPBC concentration: 200 ng/ml; 72 h
Counter-ions that a name gives are not always drawn. About 130 (10%) of roughly 1,300 compounds showed an effect of 50% or more. Only a selection was taken, and strong results are over-represented in it overall.

- compound: "C[C@H](CS)C(=O)N1CCC[C@H]1C(=O)O [Captopril] + CCCCNC(=O)OCC#CI [3-iodo-2-propynyl butylcarbamate (IPBC)]"
  growth yield [%]: 90.1
- compound: "CCCC(C)(COC(N)=O)COC(=O)NC(C)C (stereo unspecified) [Carisoprodol] + CCCCNC(=O)OCC#CI [3-iodo-2-propynyl butylcarbamate (IPBC)]"
  growth yield [%]: 92.7
- compound: "CCC1(c2ccc(N)cc2)CCC(=O)NC1=O (stereo unspecified) [Glutethimide, para-amino] + CCCCNC(=O)OCC#CI [3-iodo-2-propynyl butylcarbamate (IPBC)]"
  growth yield [%]: 112
- compound: "Clc1cccc(Cl)c1NC1=NCCN1 [Clonidine hydrochloride] + CCCCNC(=O)OCC#CI [3-iodo-2-propynyl butylcarbamate (IPBC)]"
  growth yield [%]: 99.2
- compound: "CC1CCc2cc(F)cc3c(=O)c(C(=O)O)cn1c23 (stereo unspecified) [Flumequine] + CCCCNC(=O)OCC#CI [3-iodo-2-propynyl butylcarbamate (IPBC)]"
  growth yield [%]: 97.1
- compound: "Nc1ncnc2c1ncn2C1OC(COP(=O)(O)O)C(O)C1O (stereo unspecified) [Adenosine 5'-monophosphate monohydrate] + CCCCNC(=O)OCC#CI [3-iodo-2-propynyl butylcarbamate (IPBC)]"
  growth yield [%]: 91.2
- compound: "COc1ccc2c(c1)N(C[C@H](C)CN(C)C)c1ccccc1S2 [Methotrimeprazine maleat salt] + CCCCNC(=O)OCC#CI [3-iodo-2-propynyl butylcarbamate (IPBC)]"
  growth yield [%]: 92.6
- compound: "CCCNC(C)(C)COC(=O)c1ccccc1 [Meprylcaine hydrochloride] + CCCCNC(=O)OCC#CI [3-iodo-2-propynyl butylcarbamate (IPBC)]"
  growth yield [%]: 91.8
- compound: "CCn1cc(C(=O)O)c(=O)c2cc(F)c(N3CCNC(C)C3)c(F)c21 (stereo unspecified) [Lomefloxacin hydrochloride] + CCCCNC(=O)OCC#CI [3-iodo-2-propynyl butylcarbamate (IPBC)]"
  growth yield [%]: 96.3
- compound: "CC(CN1c2ccccc2Sc2ccccc21)N(C)C (stereo unspecified) [Promethazine hydrochloride] + CCCCNC(=O)OCC#CI [3-iodo-2-propynyl butylcarbamate (IPBC)]"
  growth yield [%]: 94.3
- compound: "CCN(CC)C(C)CN1c2ccccc2Sc2ccccc21 (stereo unspecified) [Ethopropazine hydrochloride] + CCCCNC(=O)OCC#CI [3-iodo-2-propynyl butylcarbamate (IPBC)]"
  growth yield [%]: 89.2
